Sequence of the target: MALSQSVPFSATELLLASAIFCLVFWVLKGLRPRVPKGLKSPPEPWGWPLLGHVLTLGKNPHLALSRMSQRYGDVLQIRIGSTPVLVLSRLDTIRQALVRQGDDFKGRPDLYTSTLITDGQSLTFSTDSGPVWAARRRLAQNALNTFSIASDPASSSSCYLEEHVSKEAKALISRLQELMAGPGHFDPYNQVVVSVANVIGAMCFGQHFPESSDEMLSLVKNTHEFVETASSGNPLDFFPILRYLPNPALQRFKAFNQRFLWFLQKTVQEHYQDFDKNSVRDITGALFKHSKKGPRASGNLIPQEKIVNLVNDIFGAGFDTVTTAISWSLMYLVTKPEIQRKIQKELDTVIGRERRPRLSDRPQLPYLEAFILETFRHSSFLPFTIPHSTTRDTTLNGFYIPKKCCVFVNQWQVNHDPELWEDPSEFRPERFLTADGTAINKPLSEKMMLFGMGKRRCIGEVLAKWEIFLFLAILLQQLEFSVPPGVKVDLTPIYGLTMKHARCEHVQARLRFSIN
Experimental readout: IC50

CC(=O)Nc1ccc(Nc2ncnc(N[C@@H](CC(C)C)C(=O)O)n2)cc1 ... > 50 µM

// field: IC50; key: CC(=O)Nc1ccc(Nc2ncnc(NCCC(=O)OC(C)(C)C)n2)cc1 ; value = > 50 µM

====

Quick list: pEC50 per entry.
Target: Atrial natriuretic peptide receptor 3 (Homo sapiens)
Sequence (P17342 whole entry, the tested form may be a part): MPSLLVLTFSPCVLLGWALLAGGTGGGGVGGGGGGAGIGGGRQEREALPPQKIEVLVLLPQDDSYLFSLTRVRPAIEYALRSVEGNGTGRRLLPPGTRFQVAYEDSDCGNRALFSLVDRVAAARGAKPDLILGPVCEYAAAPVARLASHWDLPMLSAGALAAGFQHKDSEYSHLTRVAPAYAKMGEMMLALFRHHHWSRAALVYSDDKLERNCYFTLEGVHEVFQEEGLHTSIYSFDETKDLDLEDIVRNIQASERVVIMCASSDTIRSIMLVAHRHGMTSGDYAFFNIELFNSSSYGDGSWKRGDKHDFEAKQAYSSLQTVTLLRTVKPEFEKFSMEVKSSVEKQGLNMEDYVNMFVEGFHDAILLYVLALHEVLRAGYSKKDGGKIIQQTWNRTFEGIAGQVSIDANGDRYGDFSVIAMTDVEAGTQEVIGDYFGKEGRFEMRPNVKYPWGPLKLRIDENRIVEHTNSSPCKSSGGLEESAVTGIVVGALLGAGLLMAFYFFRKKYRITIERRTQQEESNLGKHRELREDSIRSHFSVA
Protocol notes: Displacement of Flu-P19 probe from human NPR-C (27 to 541 residues) by fluorescence polarization analysis
For clarity, pEC50 is expressed as the negative log10 of concentration in mol/L.

Take a look at these entries with their results.
CC(=O)Nc1ccc(Nc2ncnc(N[C@@H](Cc3ccccc3)C(=O)O)n2)cc1 ... 4.22
CC(=O)Nc1ccc(Nc2ncnc(N[C@H](C(=O)OC(C)(C)C)C3CCCCC3)n2)cc1 ... 3.49

Let us move to another entry and its pEC50.
Atrial natriuretic peptide receptor 3 (Homo sapiens) assay, compound CC(=O)Nc1ccc(Nc2ncnc(N[C@@H](Cc3ccccc3)C(=O)OC(C)(C)C)n2)cc1 , recorded pEC50 = 4.49

====

Protocol notes: Clearance in fasted C57BL/6 mouse at 3 mg/kg, iv by LC-MS/MS analysis
Assay type: ADME, organism-based
Study conditions: in vivo
Experimental readout: clearance (mL/min/kg)
I only need the number, in mL/min/kg, no unit after it.

Sure, the documented clearance for CC(=O)Nc1ccc(Nc2ncnc(NCCC(=O)OC(C)(C)C)n2)cc1 is 112

====

Entries and their pEC50
Target: Atrial natriuretic peptide receptor 3 (Rattus norvegicus)
Sequence (P41740 whole entry): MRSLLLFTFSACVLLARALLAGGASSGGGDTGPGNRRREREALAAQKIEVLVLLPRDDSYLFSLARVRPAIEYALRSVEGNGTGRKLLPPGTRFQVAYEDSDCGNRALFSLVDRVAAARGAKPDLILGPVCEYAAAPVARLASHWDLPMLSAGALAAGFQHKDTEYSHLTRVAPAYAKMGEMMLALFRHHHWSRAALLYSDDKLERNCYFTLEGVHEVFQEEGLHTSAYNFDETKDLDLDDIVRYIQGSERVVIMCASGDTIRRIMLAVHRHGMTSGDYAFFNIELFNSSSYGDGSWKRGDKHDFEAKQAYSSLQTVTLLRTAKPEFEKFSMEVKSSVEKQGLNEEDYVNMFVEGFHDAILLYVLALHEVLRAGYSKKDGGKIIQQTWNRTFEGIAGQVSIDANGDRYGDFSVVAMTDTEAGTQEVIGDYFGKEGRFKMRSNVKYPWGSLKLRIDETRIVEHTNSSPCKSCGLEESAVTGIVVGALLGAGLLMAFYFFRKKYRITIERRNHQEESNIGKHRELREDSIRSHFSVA
Protocol notes: Agonist activity at NPRC in rat small mesenteric arteries assessed as vasorelaxation by Organ bath assay
Format: tissue-based, Artery
Note on pEC50: it is the negative log10 of concentration, concentration in mol/L.

Known pEC50 results, listed for orientation:
CC(=O)Nc1ccc(Nc2ncnc(N[C@@H](CC(C)C)C(=O)O)n2)cc1 ... 4.65
CC(=O)Nc1ccc(Nc2ncnc(NCCC(=O)OC(C)(C)C)n2)cc1 ... 6.07
COC(=O)[C@H](CC(C)C)Nc1nc(Cl)nc(N[C@H]2CC[C@H](Nc3nc(Cl)nc(N[C@@H](CC(C)C)C(=O)OC)n3)CC2)n1 ... 6.01

Next, consider the following molecule.
Atrial natriuretic peptide receptor 3 (Rattus norvegicus) pEC50 of CC(=O)Nc1ccc(Nc2ncnc(N[C@@H](C)C(=O)OC(C)(C)C)n2)cc1 is 5.46
